Biological target: RIPK1
Settings: ASO; further: test concentration or dose not given here
These antisense oligonucleotides have a phosphorothioate backbone; sugars and methylation of C are not fully specified.
quantity: remaining target (mRNA or protein) (fraction of control)
Just the number, please, no unit after it.

Below: 3 sequences and their reported remaining target (mRNA or protein) (fraction of control).
ATCTGGTAAACCTTTTCT = 0.99
GCCACATTCTGTCTGGGC = 0.72
TGAGGTTGGCTGGTGAGC = 0.83

Shifting focus to the sequence that follows.
I'd like to know its remaining target (mRNA or protein) (fraction of control). The sequence in question is TGTCCAGTTCTGCACTCT
0.81

----------
Molecular target: SELE
Details: ASO
These antisense oligonucleotides have a phosphorothioate backbone; sugars and methylation of C are not fully specified.
Property: remaining target (mRNA or protein) (fraction of control); scope: individual sequences
Number, no unit, nothing else.

Look over these answered cases.
GGGCCAGAGACCCGAGGAGA = 0.46
CAGCCAAGAACAGCTGG = 0.62
GAGTTCTTTTCACCC = 0.63

So what's the measured remaining target (mRNA or protein) (fraction of control) for this one? GACTTCAAGAGTTCT
0.82

Param item = TTCCCCAGATGCACCTGTTT ; retrieve measured remaining target (mRNA or protein) (fraction of control).
0.02

// lookup remaining target (mRNA or protein) (fraction of control) for TGAAGTCAGCCAAGAACAGCT
0.08

Please look up its remaining target (mRNA or protein) (fraction of control): CACAATCCTTAAGAACTCTTT
0.31

Item GGCTTGAAATACTTTCCT has what recorded remaining target (mRNA or protein) (fraction of control)?
0.84

----------
Target: REL
Conditions: ASO
These antisense oligonucleotides have a phosphorothioate backbone; sugars and methylation of C are not fully specified.
quantity: remaining target (mRNA or protein) (fraction of control)
Number only, no unit.

TTTCTACGTGATCCTGGC = 0.85
GTATTGCCTGAGCGTGGG = 0.57
CACTAACTTCCTGGTCAG = 0.48
CTTCCCGCAGGCAGCTCC = 0.56
CGGTTGTTGTCTGTGCTG = 0.38

Recorded remaining target (mRNA or protein) (fraction of control) for TTGTATTCGCTATGTCCA with REL, please?
0.53

Field: remaining target (mRNA or protein) (fraction of control) (REL). Entry: GTCTCAAGTCTCTTGGGT
0.41

Checklist item: remaining target (mRNA or protein) (fraction of control) tested on REL, entry TTACTGTTACGGGTTCTG , value?
0.64

Return remaining target (mRNA or protein) (fraction of control) measured with REL given this sequence: CACAATTCTTGTTTACAC
0.84

Provide value of remaining target (mRNA or protein) (fraction of control) for this record tested with REL: CTTTTCCATAATAGTTCA
0.85

Form entry - test system: REL; read-out: remaining target (mRNA or protein) (fraction of control); sequence: CTCCTCCTTCTTCCCGCC
0.78

Look up remaining target (mRNA or protein) (fraction of control) with REL for this sequence: TGTAATCCCAGCACTTTG
0.73

// map CAAAATGCTGCATCTATA to recorded remaining target (mRNA or protein) (fraction of control) (system: REL)
0.79

Under REL: remaining target (mRNA or protein) (fraction of control) value of CACAGTCTCACCACATTG ?
0.39

----------
Catalogue of sequences with associated remaining target (mRNA or protein) (fraction of control)
Molecular target: NCOA2
Settings: ASO
These antisense oligonucleotides have a phosphorothioate backbone; sugars and methylation of C are not fully specified.

CTGTCAACATTTACTTGG = ≥ 1
TTCATGGCACTGGTGGTA = 0.85
GGGAAAAGCTGTGGTAAT = 0.79
TGCCTTCCAGGTTCACTA = 0.99
CCCTAAATTTCCTTGGTT = 0.82

Item GGCCCCAGCGCATCCTTG has what recorded remaining target (mRNA or protein) (fraction of control)?
0.45

Quick one: remaining target (mRNA or protein) (fraction of control) of GTAGGCACGGAGGTCACT ?
≥ 1

Consider the sequence shown here: GCAAGCTACCTGTGGAGT What is its recorded remaining target (mRNA or protein) (fraction of control)?
0.5

So what does the record say about remaining target (mRNA or protein) (fraction of control) for AACCACCAAACCTGCCCA ?
0.42

----------
Target: PDPK1
Conditions: ASO
These antisense oligonucleotides have a phosphorothioate backbone; sugars and methylation of C are not fully specified.
Labelling: remaining target (mRNA or protein) (fraction of control) reported below 0.6 becomes Condition met; at or above becomes Condition not met.

Recorded results for 10 sequences are shown here.
CTGCTCTATGTTGCTGCC = Condition met
GTGAGGAGGAGGACGAAG = Condition not met
CTCTAAAGCAGACACAAT = Condition not met
GCAGGTGTCCTGGCAGCG = Condition met
CTGGTATCGCTGCCTCCA = Condition met
TTGGCCCTGGCTTGTTTG = Condition met
TAAGTCCAGTTCAAAGGA = Condition not met
GCGTCCTCCTCCCCGAAG = Condition not met
AGCTGGCTGGTGGTCCTG = Condition met
CGATCTCAGCCGTGTAAA = Condition met

Strictly below 0.6: is that where remaining target (mRNA or protein) (fraction of control) of ATGTGGTCCTTCTGTGAG sits?
Condition not met

Find out if reported remaining target (mRNA or protein) (fraction of control) for CTGACAGGGAGTGTGAGG is less than 0.6
Condition not met

Decide: remaining target (mRNA or protein) (fraction of control) of CTGAAATGTGAAGTAAAG strictly below 0.6?
Condition met

Here's an entry: GCTGCCTCCAAACCTCCT . Is its remaining target (mRNA or protein) (fraction of control) below 0.6?
Condition not met

# strict comparison: is reported remaining target (mRNA or protein) (fraction of control) < 0.6? input = CAAGAGCCCAAAGGTCTG
Condition not met

Record TCTGGAGAAACGTACTGC : is its remaining target (mRNA or protein) (fraction of control) strictly below 0.6?
Condition not met

----------
Biological target: Agtr1a (rat)
Conditions: ASO
These antisense oligonucleotides have a phosphorothioate backbone; sugars and methylation of C are not fully specified.
sequences and their reported remaining target (mRNA or protein) (fraction of control)
# answer = number (no unit)

GGATGCGGTCGATGCTGAGA = 0.39
ATGCGGTCGATGCTGAGACA = 0.75
AACAGAGGGTTCAGGCAGTT = 0.29
CTGGCGTAGAGGTTGAAGCT = 0.41
AGAGGGTTCAGGCAGTTGTT = 0.3

Lab note: next sequence to report on.
Form: Entry = ACACGTGTGAAGGAACACAC | System = Agtr1a (rat) | remaining target (mRNA or protein) (fraction of control) = ____
0.51

----------
Target: BIRC2
Conditions: ASO
These antisense oligonucleotides have a phosphorothioate backbone; sugars and methylation of C are not fully specified.
quantity: remaining target (mRNA or protein) (fraction of control)

Below: 3 sequences and their reported remaining target (mRNA or protein) (fraction of control).
TTAGATGGCTTCAAGTGT = 0.9
TTAGTTAGCCATAAAATT = ≥ 1
AGGTGGATGCACTTCTGA = ≥ 1

For the sequence shown here, AAATTACACTCCATAGAA , give the reported remaining target (mRNA or protein) (fraction of control).
≥ 1

So what's the measured remaining target (mRNA or protein) (fraction of control) for this one? CATTTCTTCAGCTTGTTT
≥ 1

# remaining target (mRNA or protein) (fraction of control) lookup, item GGTAACCTAAGTGCTATT
≥ 1

Requested field: remaining target (mRNA or protein) (fraction of control). Item: TTTCTTCACATGAACTAA
≥ 1

If you can, please state the reported remaining target (mRNA or protein) (fraction of control) value of ATTCTTATCCACAAATAA .
≥ 1

May I ask what remaining target (mRNA or protein) (fraction of control) has been recorded for TTCCCAACACCTCAAGCC ?
0.45

Report remaining target (mRNA or protein) (fraction of control) for CAATCTGACAAGATCGTG please.
≥ 1

Name the reported remaining target (mRNA or protein) (fraction of control) value associated with the sequence TGGTAGGTAAGAAATCTG
≥ 1

What remaining target (mRNA or protein) (fraction of control) value was documented for this sequence, ATAACAGACCAATTACTG ?
≥ 1

I'd like to know its remaining target (mRNA or protein) (fraction of control). The sequence in question is TAGAGTTCACAGGAAAAG
≥ 1

What does the record list as remaining target (mRNA or protein) (fraction of control) for AATCAACTCTACTAGCCT ?
0.53

Request the reported remaining target (mRNA or protein) (fraction of control) associated with TACCTTGAATCTCATCAA
≥ 1

I have this sequence here, ATATAGTTCACCAAACAT , and I need its recorded remaining target (mRNA or protein) (fraction of control).
≥ 1

Query (sequence): TTTTACTTTGAACTGTTT ; field requested: remaining target (mRNA or protein) (fraction of control)
≥ 1
